# assayed_target: hLBAT (Homo sapiens)
# Construct: expressed in transfected cells; kept under Geneticin selection
# procedure_text: LBAT (h/m) assay: 3H-taurocholic acid uptake in human LBAT-overexpressing cells
# Assay type: cell-based
# test_conditions: 0.3 μM 3H-taurocholic acid + 7.5 μM cold taurocholic acid, 20 minutes at 37° C.
pIC50: −log10 of the molar value.
attribute_measured: pIC50

1) CCCCC1CN(c2ccccc2)c2cc(OC)c(CSC(C)(C)C(=O)O)cc2S(=O)(=O)N1C (single isomer, unassigned) [38, enantiomer 1]    5.95

(a) CCCCC1(C)CN(c2ccccc2)c2cc(OC)c(CSC(C)(C)C(=O)O)cc2S(=O)(=O)C1 (racemic) [Example 41]
(b) CCCCC1CN(c2ccccc2)c2cc(OC)c(CSC(C)(C)C(=O)O)cc2S(=O)(=O)N1C (single isomer, unassigned) [38, enantiomer 2]
(c) CCCCC1(CC)CN(c2ccccc2)c2cc(SC)c(CSCC(=O)O)cc2S(=O)(=O)C1 (single isomer, unassigned) [2, enantiomer 2]
Falling order of pIC50, please. Answer format: list of labels, ordered as asked.
b, a, c

###

# assayed_target: hIBAT (Homo sapiens, UniProt Q12908)
# Construct: kept under Puromycin selection
# Sequence (Q12908 1-348): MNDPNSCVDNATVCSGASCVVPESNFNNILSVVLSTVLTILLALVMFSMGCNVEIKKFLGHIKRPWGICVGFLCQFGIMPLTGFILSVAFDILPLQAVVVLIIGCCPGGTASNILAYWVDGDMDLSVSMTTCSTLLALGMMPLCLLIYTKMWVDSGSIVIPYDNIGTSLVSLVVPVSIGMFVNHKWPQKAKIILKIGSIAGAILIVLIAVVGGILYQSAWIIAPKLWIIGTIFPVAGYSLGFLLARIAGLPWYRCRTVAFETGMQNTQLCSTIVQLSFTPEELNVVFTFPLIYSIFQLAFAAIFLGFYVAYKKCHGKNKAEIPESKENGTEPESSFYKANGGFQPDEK
# procedure_text: IBAT (h/m) assay: 3H-taurocholic acid uptake in human IBAT-overexpressing cells
# test_conditions: 0.25 μM 3H-taurocholic acid + 5 μM cold taurocholic acid, 20 minutes at 37° C., highest test concentration 10 μM
attribute_measured: IC50 (nM)

# annotated cases, reported IC50 shown
1) CCCCC1(CC)CN(c2ccccc2)c2cc(S(C)(=O)=O)c(CSCC(=O)O)cc2S(=O)(=O)N1 (racemic) [Example 47]    14
2) CCCCC1(CC)CN(c2ccccc2)c2cc(OC)c(CSCC(=O)O)cc2S(=O)(=O)N1 (single isomer, unassigned) [45, enantiomer 2]    3.2
3) CCCCC1(CC)CN(c2ccccc2)c2cc(SC)c(CSCC(=O)O)cc2S(=O)(=O)N1 (single isomer, unassigned) [10, enantiomer 1]    0.3
4) CCCCC1(C)CN(c2ccccc2)c2cc(OC)c(CSCC(=O)O)cc2S(=O)(=O)C1 (single isomer, unassigned) [28, enantiomer 2]    532

(1) CCCCC1(C)CN(c2ccccc2)c2cc(OC)c(CSCC(=O)O)cc2S(=O)(=O)C1 (single isomer, unassigned) [28, enantiomer 1]
(2) CCCCC1(C)CN(c2ccccc2)c2cc(OC)c(CSCC(=O)O)cc2S(=O)(=O)C1 (racemic) [Example 27]
Record comparison, field IC50: mark the lower of 1 and 2 . Refer to your chosen entry by its label in the reply.
1
(1: 7.7 nM, 2: 14 nM)

###

# assayed_target: hIBAT (Homo sapiens)
# Construct: kept under Puromycin selection
# procedure_text: IBAT (h/m) assay: 3H-taurocholic acid uptake in human IBAT-overexpressing cells
# test_conditions: 0.25 μM 3H-taurocholic acid + 5 μM cold taurocholic acid, 20 minutes at 37° C., highest test concentration 10 μM
attribute_measured: IC50 (nM)

1. CCCC[C@@H]1CN(c2ccccc2)c2cc(OC)c(CSCC(=O)O)cc2S(=O)(=O)N1    2610

(1) CCCCC1(CC)CN(c2ccccc2)c2cc(OC)c(CSC(C)(C)C(=O)O)cc2S(=O)(=O)C1 (racemic) [Example 25]
(2) CCCCC1(C)CN(c2ccccc2)c2cc(SC)c(CSCC(=O)O)cc2S(=O)(=O)N1 (stereo not shown)
Which shows the larger IC50 value: 1 or 2 ? # reply format: chosen label
1

(a) CCCCC1(CCCC)CN(c2ccccc2)c2cc(SC)c(CSCC(=O)O)cc2S(=O)(=O)N1
(b) CCCCC1(CC)CN(c2ccccc2)c2cc(S(C)(=O)=O)c(CSCC(=O)O)cc2S(=O)(=O)N1 (single isomer, unassigned) [48, enantiomer 2]
Of a and b , whose reported IC50 is numerically smaller? When you have decided, please share the label of that item.
a

###

# assayed_target: hLBAT (Homo sapiens, UniProt Q14973)
# Construct: kept under Geneticin selection
# Sequence (Q14973 whole entry): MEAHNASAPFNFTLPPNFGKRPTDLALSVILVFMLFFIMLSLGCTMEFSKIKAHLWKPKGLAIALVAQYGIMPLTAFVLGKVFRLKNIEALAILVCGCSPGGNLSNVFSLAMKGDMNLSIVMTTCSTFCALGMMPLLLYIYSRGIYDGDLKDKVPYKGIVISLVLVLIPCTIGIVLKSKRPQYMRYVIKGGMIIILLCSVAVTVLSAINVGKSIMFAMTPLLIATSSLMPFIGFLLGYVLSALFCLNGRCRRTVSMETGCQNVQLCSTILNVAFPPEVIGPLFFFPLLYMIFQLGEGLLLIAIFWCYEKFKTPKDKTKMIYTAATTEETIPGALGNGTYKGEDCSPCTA
# procedure_text: LBAT (h/m) assay: 3H-taurocholic acid uptake in human LBAT-overexpressing cells
# test_conditions: 0.3 μM 3H-taurocholic acid + 7.5 μM cold taurocholic acid, 20 minutes at 37° C.
attribute_measured: IC50 (nM)

1. CCCCC1(CC)CN(c2ccc(F)cc2)c2cc(SC)c(CSC(C)(C)C(=O)O)cc2S(=O)(=O)C1 (single isomer, unassigned) [16, enantiomer 1]    164
2. CCCCC1(C)CN(c2ccccc2)c2cc(SC)c(CSCC(=O)O)cc2S(=O)(=O)C1 (racemic) [Example 4]    7260

(P) CCCCC1(CC)CN(c2ccc(F)cc2)c2cc(SC)c(CSCC(=O)O)cc2S(=O)(=O)C1 (single isomer, unassigned) [7, enantiomer 1]
(Q) CCCC[C@@H]1CN(c2ccccc2)c2cc(SC)c(CSCC(=O)O)cc2S(=O)(=O)N1
(R) CCCCC1(CCCC)CN(c2ccccc2)c2cc(SC)c(CSCC(=O)O)cc2S(=O)(=O)C1
(S) CCCCC1(CC)CN(c2ccc(F)cc2)c2cc(OC)c(CSC(C)(C)C(=O)O)cc2S(=O)(=O)C1 (single isomer, unassigned) [34, enantiomer 2]
With regard to IC50, arrange the entries in ascending order, please. List labels; respect the requested ordering.
Q, S, R, P
(Q: 50 nM, S: 155 nM, R: 3370 nM, P: 5050 nM)

###

# assayed_target: hLBAT (Homo sapiens)
# Construct: kept under Geneticin selection
# procedure_text: LBAT (h/m) assay: 3H-taurocholic acid uptake in human LBAT-overexpressing cells
# test_conditions: 0.3 μM 3H-taurocholic acid + 7.5 μM cold taurocholic acid, 20 minutes at 37° C.
attribute_measured: IC50 (nM)

1) CCCCC1(C)CN(c2ccccc2)c2cc(SC)c(CSC(C)(C)C(=O)O)cc2S(=O)(=O)C1 (single isomer, unassigned) [19, enantiomer 2]    176

(I) CCCCC1(C)CN(c2ccccc2)c2cc(SC)c(CSC(C)(C)C(=O)O)cc2S(=O)(=O)C1 (single isomer, unassigned) [19, enantiomer 1]
(II) CCCCC1CN(c2ccccc2)c2cc(SC)c(CSCC(=O)O)cc2S(=O)(=O)N1C (single isomer, unassigned) [12, enantiomer 2]
Which numeric IC50 is bigger, that of I or that of II ? Bench note: the answer is the label of the chosen record.
I

###

# assayed_target: hIBAT (Homo sapiens, UniProt Q12908)
# Construct: kept under Puromycin selection
# procedure_text: IBAT (h/m) assay: 3H-taurocholic acid uptake in human IBAT-overexpressing cells
# test_conditions: 0.25 μM 3H-taurocholic acid + 5 μM cold taurocholic acid, 20 minutes at 37° C., highest test concentration 10 μM
pIC50: −log10 of the molar value.
attribute_measured: pIC50

Consider the reported pIC50 for these molecules:
1) CCCCC1(C)CN(c2ccccc2)c2cc(SC)c(CSC(C)(C)C(=O)O)cc2S(=O)(=O)C1 (racemic) [Example 18]    6.39
2) CCCCC1CN(c2ccccc2)c2cc(OC)c(CSCC(=O)O)cc2S(=O)(=O)N1C (single isomer, unassigned) [36, enantiomer 2]    5.56

(a) CCCCC1(CC)CN(c2ccccc2)c2cc(OC)c(CSCC(=O)O)cc2S(=O)(=O)N1 (single isomer, unassigned) [45, enantiomer 1]
(b) CCCCC1(C)CN(c2ccccc2)c2cc(SC)c(CSCC(=O)O)cc2S(=O)(=O)C1 (single isomer, unassigned) [5, enantiomer 1]
Dear colleague, could you let me know whether a or b has the lower recorded pIC50? Thanks. Respond with the label that goes with your answer.
a
(a: 7.55, b: 9.15)

###

# assayed_target: hIBAT (Homo sapiens, UniProt Q12908)
# Construct: kept under Puromycin selection
# procedure_text: IBAT (h/m) assay: 3H-taurocholic acid uptake in human IBAT-overexpressing cells
# test_conditions: 0.25 μM 3H-taurocholic acid + 5 μM cold taurocholic acid, 20 minutes at 37° C., highest test concentration 10 μM
# Description: IBAT (h/m) Assay Protocol […] 100 μL of MicroScint-20 (PerkinElmer 6013621) was added to the wells and kept overnight at RT before reading the plates in TopCount NXT™ Microplate Scintillation and Luminescence Counter from PerkinElmer under 3H Test protocol (set at 120 seconds reading time per well). […]
attribute_measured: IC50 (nM)

1) CCCC[C@@H]1CN(c2ccccc2)c2cc(SC)c(CSCC(=O)O)cc2S(=O)(=O)N1    558

(A) CCCCC1(CC)CN(c2ccc(F)cc2)c2cc(OC)c(CSCC(=O)O)cc2S(=O)(=O)C1 (single isomer, unassigned) [40, enantiomer 2]
(B) CCCCC1(CC)CN(c2ccc(F)cc2)c2cc(OC)c(CSC(C)(C)C(=O)O)cc2S(=O)(=O)C1 (single isomer, unassigned) [34, enantiomer 2]
Parameter check: reported IC50 is higher for which label, A or B ? Answer = label.
B
